biological target: Biotin tagged HIF-2α protein containing PAS-B domain (240-350) (Homo sapiens, UniProt Q99814)
Sequence (Q99814 240-350): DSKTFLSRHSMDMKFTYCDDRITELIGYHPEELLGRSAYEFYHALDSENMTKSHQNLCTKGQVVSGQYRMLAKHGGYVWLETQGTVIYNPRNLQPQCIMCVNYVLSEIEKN
pIC50: −log10 of the molar value.
measured_endpoint: pIC50

>  <molecule>
O[C@H]1c2c(C(F)(F)F)nn(C[C@H]3C[C@H](F)C3)c2CCC1(F)F [Example 45]

>  <result>
6.00 to 7.00

$$$$
>  <molecule>
CS(=O)(=O)CCn1nc(C(F)(F)F)c2c1CCC(F)(F)[C@H]2O [Example 42]

>  <result>
6.00 to 7.00

$$$$
>  <molecule>
O[C@H]1c2c(C(F)(F)F)nn(CCC3CC(F)(F)C3)c2CCC1(F)F [Example 44]

>  <result>
6.00 to 7.00

$$$$
>  <molecule>
O[C@H]1c2c(C(F)(F)F)nn(CCOC3CC3(F)F)c2CCC1(F)F (some centres unmarked) [Example 25]

>  <result>
< 6.00

$$$$

Now look at this entry.
query: Which pIC50 value belongs to O=S1(=O)CC(Cn2nc(C(F)(F)F)c3c2CCC(F)(F)[C@H]3O)C1 [Example 46] ?
result: 6.00 to 7.00

Data origin: patent US12071411B2
